Where a name gives a salt, the structure may show the parent alone.
Recorded below: MIC, system Strenotrophomonas maltophilia ATCC 13637.
quantity: MIC

molecule	assay.value
CN[C@@H]1[C@H](O)[C@H](NC)C2O[C@]3(O)C(OC2[C@H]1O)O[C@H](C)C[C@H]3NC(=O)C(c1ccccc1)c1ccccc1 (some centres unmarked) [Compound 1514, dihydrochloride]	> 200 µg/mL
CN[C@@H]1[C@H](O)[C@H](NC)C2O[C@]3(O)C(OC2[C@H]1O)O[C@H](C)C[C@H]3NC(=O)Cc1ccc(F)cn1 (some centres unmarked) [Compound 1445, trihydrobromide]	> 200 µg/mL
CN[C@@H]1[C@H](O)[C@H](NC)C2O[C@]3(O)C(OC2[C@H]1O)O[C@H](C)C[C@H]3NC(=O)c1ccco1 (some centres unmarked) [Compound 1365, Dihydrochloride]	> 200 µg/mL
CN[C@@H]1[C@H](O)[C@H](NC)C2O[C@]3(O)C(OC2[C@H]1O)O[C@H](C)C[C@H]3NC(=O)Cc1ncccn1 (some centres unmarked) [Compound 1439, Dihydrochloride]	> 200 µg/mL
CN[C@@H]1[C@H](O)[C@H](NC)C2O[C@]3(O)C(OC2[C@H]1O)O[C@H](C)C[C@H]3NCc1cccc(OC)c1 (some centres unmarked) [Compound 1423, Trihydrochloride]	> 200 µg/mL
CN[C@@H]1[C@H](O)[C@H](NC)[C@H]2O[C@@]3(O)C(=O)C[C@@H](C)O[C@H]3O[C@@H]2[C@H]1O [Spectinomycin, reference compound]	> 200 µg/mL
CN[C@@H]1[C@H](O)[C@H](NC)C2O[C@]3(O)C(OC2[C@H]1O)O[C@H](C)C[C@H]3NC(=O)Cc1ccccn1 (some centres unmarked) [Compound 1329, Dihydrochloride]	200 µg/mL
CN[C@@H]1[C@H](O)[C@H](NC)C2O[C@]3(O)C(OC2[C@H]1O)O[C@H](C)C[C@H]3NCCC(C)C (some centres unmarked) [Compound 1420, Trihydrochloride]	200 µg/mL
